Ref: PubChem BioAssay (NCI)

# System: UO-31 renal
# test: NCI-60 one-dose screen, 48 h (100 = growth as untreated, 0 = no growth, -100 = all killed)
# setup.conditions: 10 µM unless noted
This is part of a sample that, as a whole, favours compounds with a hit. Of some 83,000 tested, about 20% had one in any assay.
Property: growth; scope: individual molecules
measured.property: growth (%)

>  <molecule>
N#CSCC1CC(O)(c2ccccc2)C(c2ccccc2)C(c2ccc(Cl)cc2)O1 (centres undefined)

>  <result.number>
-93.1

$$$$
>  <molecule>
NC(=O)c1cc(Br)cc(Br)c1NS(=O)(=O)c1ccccc1

>  <result.number>
75

$$$$
>  <molecule>
NC(=NCCCCCCN=C(N)/N=C(\N)Nc1ccc(Cl)cc1)/N=C(\N)Nc1ccc(Cl)cc1

>  <result.number>
46.6

$$$$
>  <molecule>
O=c1c2c(=NCCCN3CCCC3)cc3c(=O)n(CCCN4CCCC4)c(=O)c4c(NCCCN5CCCC5)cc(c(O)n1CCCN1CCCC1)c2c4-3

>  <result.number>
-34.9

$$$$
>  <molecule>
CN1C(=O)C(C2=NN(C=O)C(c3ccc(F)cc3)C2)C(=O)N(C)C1=O (centres undefined)

>  <result.number>
96.6

$$$$
>  <molecule>
COc1ccc(N2CCN(CC(=O)N3CCN(c4nnc(-c5ccccc5)c(-c5ccccc5)n4)CC3)CC2)cc1

>  <result.number>
24.9

$$$$
>  <molecule>
c1ccc2nc(Cn3c[n+](Cc4ccc5ccccc5n4)c4ccccc43)ccc2c1

>  <result.number>
79.5

$$$$
>  <molecule>
O=C1/C=C/[C@@H](O)[C@@H]2C[C@@H](O)C[C@H]2/C=C/CCC[C@H](CO)O1

>  <result.number>
11.2

$$$$
>  <molecule>
Cc1nn2c(/C=C3/C(=O)Nc4cc(Cl)ccc43)c(-c3ccccc3)nc2s1

>  <result.number>
-72.3

$$$$
>  <molecule>
CCOc1nc(-c2ccco2)n2nc(-c3ccco3)cc2n1

>  <result.number>
91.1

$$$$
>  <molecule>
COC(=O)Nc1ccc2ccc3c(NC(=O)OC)ccc4ccc1c2c43 (tested in a mixture with another compound)

>  <result.number>
42.1

$$$$
>  <molecule>
Nc1ccc2c(c1)Cc1cc(Cl)c(Cl)cc1-2

>  <result.number>
63.6

$$$$
>  <molecule>
COc1cc(NC(C)CCCN)c2nc(C)ccc2c1Oc1ccc(F)cc1 (centres undefined)

>  <result.number>
45.4

$$$$
>  <molecule>
CCOC(=O)c1sc(NC(=O)COc2ccc(/C=C3\CCc4cc(OC)ccc4C3=O)cc2)nc1C

>  <result.number>
14.5

$$$$
>  <molecule>
CCN1CC2=C(Nc3nc(SC)[nH]c(=O)c3C2c2cc(OC)c(OC)c(OC)c2)/C(=C/c2cc(OC)c(OC)c(OC)c2)C1 (centres undefined)

>  <result.number>
106

$$$$
>  <molecule>
O=C(NN1C(=O)c2cc(C(=O)O)c(C(=O)O)cc2C1=O)c1ccncc1

>  <result.number>
112

$$$$
>  <molecule>
O=C1NC(=S)S/C1=C\c1cc(Br)ccc1O

>  <result.number>
67.6

$$$$
>  <molecule>
CCSc1ncc(Br)c(Sc2nc(N)nc3nc[nH]c23)n1

>  <result.number>
70

$$$$
>  <molecule>
Cc1cc(C(=O)Nc2ccc3cc(CN4CCOCC4)ccc3n2)c(C)n1-c1ccccc1

>  <result.number>
53.3

$$$$
